target or system: canine TRPM8 (Canis lupus familiaris, UniProt Q1A7N1)
Construct: expressed in transfected cells
Sequence (Q1A7N1 1-1104): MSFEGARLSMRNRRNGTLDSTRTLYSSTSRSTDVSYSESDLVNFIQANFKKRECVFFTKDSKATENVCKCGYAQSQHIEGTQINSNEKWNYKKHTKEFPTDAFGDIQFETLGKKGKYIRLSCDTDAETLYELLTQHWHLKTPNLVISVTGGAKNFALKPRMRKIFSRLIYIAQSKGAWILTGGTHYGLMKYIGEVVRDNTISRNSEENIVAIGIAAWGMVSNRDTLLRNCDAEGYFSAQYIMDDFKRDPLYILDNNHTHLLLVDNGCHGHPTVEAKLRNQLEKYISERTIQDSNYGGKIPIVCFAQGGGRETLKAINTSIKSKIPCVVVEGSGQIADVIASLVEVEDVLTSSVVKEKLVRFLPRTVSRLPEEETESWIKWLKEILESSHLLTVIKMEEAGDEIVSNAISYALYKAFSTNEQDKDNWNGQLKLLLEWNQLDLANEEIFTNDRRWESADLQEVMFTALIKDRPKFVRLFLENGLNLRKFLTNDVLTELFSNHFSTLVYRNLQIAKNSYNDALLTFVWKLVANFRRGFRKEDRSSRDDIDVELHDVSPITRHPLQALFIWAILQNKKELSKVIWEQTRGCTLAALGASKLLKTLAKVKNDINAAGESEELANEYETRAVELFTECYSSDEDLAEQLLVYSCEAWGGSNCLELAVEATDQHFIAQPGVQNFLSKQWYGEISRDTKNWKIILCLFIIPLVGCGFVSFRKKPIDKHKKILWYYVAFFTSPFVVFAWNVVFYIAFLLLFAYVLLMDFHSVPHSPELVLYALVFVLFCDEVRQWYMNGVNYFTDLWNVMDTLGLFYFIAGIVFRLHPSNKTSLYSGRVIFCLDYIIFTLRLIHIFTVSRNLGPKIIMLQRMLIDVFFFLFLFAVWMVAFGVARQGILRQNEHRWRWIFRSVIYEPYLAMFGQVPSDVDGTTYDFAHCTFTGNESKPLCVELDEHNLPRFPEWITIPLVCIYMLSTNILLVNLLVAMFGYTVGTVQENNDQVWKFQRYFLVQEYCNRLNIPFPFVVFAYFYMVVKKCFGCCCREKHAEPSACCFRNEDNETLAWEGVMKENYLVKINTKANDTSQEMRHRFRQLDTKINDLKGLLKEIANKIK
experimental protocol: In vitro canine TRPM8 functional assay (Ca2+-sensitive dye, FLIPR/FDSS, icilin activation)
Assay type: cell-based
conditions used: HEK293, 1 μM compound; HEK293 cells expressing canine TRPM8, icilin activation; read-out: % I (1 μM)
Description: The functional activity of compounds of Formula (I) was determined by measuring changes in intracellular calcium concentration using a Ca^2+-sensitive fluorescent dye. The changes in fluorescent signal were monitored by a fluorescence plate reader, either a FLIPR™ (Molecular Devices) or FDSS (Hamamatsu). […] Basal FI was subtracted prior to normalizing data to percent of maximal response. […] Finally, the EC50 and IC50 values were calculated with the best-fit dose curve determined by GraphPad Prism.
property measured: inhibition at 1 µM (%)

Examples with their reported inhibition at 1 µM follow.
Cc1c(C(Cc2ccc(F)c(F)c2)P(=O)(OC(C)C)OC(C)C)sc2ncccc12 (centres unmarked) = 100
Cc1c(C(Cc2ccc(F)c(F)c2)P(=O)(OC(C)C)OC(C)C)sc2ccc(Cl)cc12 (centres unmarked) = 91

A. CC(C)OP(=O)(OC(C)C)C(Cc1ccc(F)c(F)c1)c1cc2ccccc2s1 (centres unmarked)
B. Cc1c(C(Cc2ccc(F)c(F)c2)P(=O)(OC2CCCCC2)OC2CCCCC2)sc2ccccc12 (centres unmarked)
# input Compare A and B and name the one whose reported inhibition at 1 µM is smaller. Kindly state the label of the option you pick.
# output B

----------
target or system: canine TRPM8 (Canis lupus familiaris)
Construct: expressed in transfected cells
experimental protocol: In vitro canine TRPM8 functional assay (Ca2+-sensitive dye, FLIPR/FDSS, icilin activation)
Format: cell-based
conditions used: HEK293 cells expressing canine TRPM8, icilin activation; eight-point dose-response; read-out: IC50
property measured: IC50 (nM)
Output spec: scalar in nM, unitless text.

Use these answered entries as a reference point.
CCOP(=O)(OCC)C(Cc1cc(C(F)(F)F)ccc1Cl)c1sc2ccccc2c1C (centres unmarked) [Cpd 99] = 720
CCOP(=O)(OCC)C(Cc1ccc(SC(F)(F)F)cc1)c1sc2ccccc2c1Cl (racemic) [Cpd 283] = 125
Cc1c(C(Cc2ccc(F)c(F)c2)P(=O)(OC(C)C)OC(C)C)sc2ccc(Cl)cc12 (centres unmarked) [Cpd 92] = 580
CCOP(=O)(OCC)C(Cc1cccc(C(F)(F)F)c1)c1cc2ccccc2s1 (centres unmarked) [Cpd 39] = 141
CC(C)OP(=O)(OC(C)C)C(Cc1ccc(Cl)c(F)c1)c1sc2ccccc2c1Br (centres unmarked) [Cpd 190] = 102
CCOP(=O)(OCC)C(Cc1ccc(S(=O)(=O)C(F)(F)F)cc1)c1sc2ccccc2c1Br (centres unmarked) [Cpd 262] = 66
CC(C)OP(=O)(OC(C)C)C(Cc1cc(C(F)(F)F)cc(C(F)(F)F)c1)c1sc2ccccc2c1Cl (racemic) [Cpd 171] = 221
CC(C)OP(=O)(OC(C)C)C(Cc1cc(Cl)ccc1F)c1sc2ccccc2c1Cl (racemic) [Cpd 303] = 49

# input What IC50 value was documented for this compound, CCOP(=O)(OCC)C(Cc1cccc(C#N)c1)c1sc2ccccc2c1Br (centres unmarked) [Cpd 309] ?
# output 88

# input Subsequent entry: CCOP(=O)(OCC)C(Cc1ccc(F)c(F)c1)c1sc2ccccc2c1-c1ccccc1O (racemic) [Cpd 215]
# output 85

# input Next record, please: CC(C)OP(=O)(OC(C)C)C(Cc1cc(O)c(Cl)cc1F)c1sc2ccccc2c1Br (racemic) [Cpd 232]
# output 63

# input Entry CCOP(=O)(OCC)C(Cc1cccc(C(F)(F)F)c1F)c1sc2ccccc2c1C (centres unmarked) [Cpd 37] please
# output 127

# input Next compound up: CCOP(=O)(OCC)C(Cc1ccc(C(F)(F)F)c(F)c1)c1cc2ccccc2s1 (centres unmarked) [Cpd 58]
# output 270

# input Okay, and CCOP(=O)(OCC)C(Cc1ccc(C(F)(F)F)c(F)c1)c1sc2ccccc2c1Br (racemic) [Cpd 144] ?
# output 58

# input Next: CC(C)OP(=O)(OC(C)C)C(Cc1ccc(C(F)(F)F)c(F)c1)c1sc2ccccc2c1Cl (centres unmarked) [Cpd 174]
# output 89

# input Likewise for CC(C)OP(=O)(OC(C)C)C(Cc1cccc(O)c1)c1sc2ccccc2c1Br (centres unmarked) [Cpd 325] ?
# output 10

# input Entry COP(=O)(OC)C(Cc1ccc(F)c(F)c1)c1sc2ccccc2c1Br (centres unmarked) [Cpd 201] please
# output 133

----------
target or system: canine TRPM8 (Canis lupus familiaris)
Construct: expressed in transfected cells
experimental protocol: In vitro canine TRPM8 functional assay (Ca2+-sensitive dye, FLIPR/FDSS, icilin activation)
Type: cell-based
conditions used: 1 μM compound; HEK293 cells expressing canine TRPM8, icilin activation
property measured: % I (1 μM) (%)
Give your result in % as a bare value.

Please review the entries below; each comes with its answer.
CC(C)OP(=O)(OC(C)C)C(Cc1ccc(F)c(F)c1)c1oc2cccc(F)c2c1Br (racemic) = 101
CC(C)OP(=O)(OC(C)C)C(Cc1cccc(Cl)c1)c1sc2ccccc2c1Br (racemic) = 103
CCOP(=O)(CC(C)C)C(Cc1ccc(F)c(F)c1)c1sc2ccccc2c1C (stereo not drawn) [Cpd 6] = 100

# input Form entry - test system: canine TRPM8 (Canis lupus familiaris); read-out: % I (1 μM); compound: CCOP(=O)(OCC)C(Cc1ccccc1Cl)c1cc2ccccc2s1 (stereo not drawn)
# output 90

# input Input CC(C)OP(=O)(OC(C)C)C(Cc1ccc(F)cc1)c1sc2cc(Br)ccc2c1Br (stereo not drawn)
# output 81

# input Now give it for CCOP(=O)(OCC)C(Cc1cccc(Cl)c1Cl)c1sc2ccccc2c1C (stereo not drawn) too.
# output 100

# input Lookup CC(C)OP(=O)(OC(C)C)C(Cc1cccc(F)c1)c1cc2ccccc2s1 (stereo not drawn)
# output 101

# input Next record, please: CCC(C)P(=O)(C(C)CC)C(Cc1ccc(F)c(F)c1)c1sc2ccccc2c1Br (stereo not drawn)
# output 96

# input And the next one, CC(C)OP(=O)(OC(C)C)C(Cc1ccccc1F)c1sc2cc(Br)ccc2c1Br (stereo not drawn) ?
# output 81

# input Repeat with CC(C)OP(=O)(OC(C)C)C(Cc1ccc(F)c(F)c1)c1sc2ccccc2c1C(C)C (stereo not drawn)
# output 100

# input Similarly, CCOP(=O)(OCC)C(Cc1ccccc1F)c1cc2ccccc2s1 (stereo not drawn) ?
# output 93

# input Likewise for CCOP(=O)(OCC)C(Cc1cccc(C(F)(F)F)c1)c1cc2ccccc2s1 (stereo not drawn) ?
# output 100

# input Continue with CCOP(=O)(OCC)C(Cc1ccccc1C(F)(F)F)c1cc2ccccc2s1 (stereo not drawn)
# output 86

# input Query CCOP(=O)(OCC)C(Cc1c(Cl)cccc1Cl)c1cc2ccccc2s1 (stereo not drawn) next
# output 89

# input Item: CCOP(=O)(OCC)C(Cc1ccc(F)c(F)c1)c1cc2cccnc2s1 (stereo not drawn)
# output 28

# input Try CCC(C)P(=O)(C(C)CC)C(Cc1ccc(F)c(F)c1)c1oc2ccccc2c1Br (stereo not drawn) next.
# output 103

# input Repeat for the following compound: CCOP(=O)(OCC)C(Cc1cc(F)cc(F)c1Cl)c1sc2ccccc2c1C (stereo not drawn)
# output 100

# input Query CC(C)OP(=O)(OC(C)C)C(Cc1cc(C(F)(F)F)cc(Cl)c1F)c1sc2ccccc2c1Br (stereo not drawn) next
# output 103

----------
target or system: canine TRPM8 (Canis lupus familiaris, UniProt Q1A7N1)
Construct: expressed in transfected cells
experimental protocol: In vitro canine TRPM8 functional assay (Ca2+-sensitive dye, FLIPR/FDSS, icilin activation)
Format: cell-based
conditions used: 0.5 μM compound; HEK293 cells expressing canine TRPM8, icilin activation
# % I (0.5 μM) per record follows
Numbers only; they are read as %.

CC(C)OP(=O)(OC(C)C)C(Cc1ccc(S(=O)(=O)C(F)(F)F)cc1)c1sc2ccccc2c1Cl (centres unmarked) [Cpd 264] = 103
CC(C)OP(=O)(OC(C)C)C(Cc1ccc(OC(F)(F)F)c(Cl)c1)c1sc2ccccc2c1Cl (centres unmarked) [Cpd 184] = 104
COc1ccc(CC(c2sc3ccccc3c2Br)P(=O)(OC(C)C)OC(C)C)cc1F (racemic) [Cpd 159] = 103
CCOP(=O)(OCC)C(Cc1ccc(F)cc1C(F)(F)F)c1sc2ccccc2c1Br (racemic) [Cpd 245] = 103

# input What measured % I (0.5 μM) is associated with CCOP(=O)(OCC)C(Cc1cccc(C(F)(F)F)c1F)c1sc2ccccc2c1Br (centres unmarked) [Cpd 142] on canine TRPM8 (Canis lupus familiaris, UniProt Q1A7N1)?
# output 101

# input Cool, now CCOP(=O)(OCC)C(Cc1cc(OC)c(Cl)cc1F)c1sc2ccccc2c1Br (racemic) [Cpd 164]
# output 94

# input Also CC(C)OP(=O)(OC(C)C)C(Cc1c(Cl)cccc1Cl)c1sc2ccccc2c1Cl (centres unmarked) [Cpd 183] ?
# output 103

# input Same question for CC(C)OP(=O)(OC(C)C)C(Cc1ccc(F)cc1C(F)(F)F)c1sc2ccccc2c1Cl (centres unmarked) [Cpd 254] please.
# output 103

# input Then CCOP(=O)(OCC)C(Cc1ccc(F)c(F)c1)c1sc2ccccc2c1-c1ccsc1 (racemic) [Cpd 208] ?
# output 104

Measured values drawn from patent US20080287398A1 for this set.
